Ref: ChEMBL document CHEMBL1142646

biological target: Growth hormone secretagogue receptor type 1 (Homo sapiens, UniProt Q92847); assay: In vivo effective concentration against human growth hormone secretagogues; format: functional, organism-based, Rattus norvegicus
Sequence (Q92847 whole entry): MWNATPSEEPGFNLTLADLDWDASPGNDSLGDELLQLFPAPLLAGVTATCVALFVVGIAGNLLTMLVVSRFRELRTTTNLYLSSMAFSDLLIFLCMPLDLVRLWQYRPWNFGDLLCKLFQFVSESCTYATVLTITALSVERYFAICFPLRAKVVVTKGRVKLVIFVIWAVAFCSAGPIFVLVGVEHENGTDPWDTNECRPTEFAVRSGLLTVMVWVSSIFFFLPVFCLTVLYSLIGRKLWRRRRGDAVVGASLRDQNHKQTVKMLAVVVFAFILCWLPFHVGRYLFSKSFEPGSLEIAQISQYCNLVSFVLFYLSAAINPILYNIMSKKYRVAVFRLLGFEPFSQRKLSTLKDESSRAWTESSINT
RECORDED ENDPOINT: pEC50
Recall that pEC50 is obtained by taking minus log10 of the concentration measured in molar.

Field request: pEC50 | item: CC(C)N(CCNC(=O)C1c2ccc(Oc3ccccc3)cc2CCN1C(=O)OC(C)(C)C)C(C)C (single isomer, unassigned; form 2)
9.34

###

target: Growth hormone secretagogue receptor type 1 (Homo sapiens); experiment: In vitro effective concentration against human growth hormone secretagogues; format: functional
RECORDED ENDPOINT: pEC50
Reminder that pEC50 is minus the log10 of a molar concentration.

What measured pEC50 is associated with COc1ccccc1CC(=O)N1CCc2cc(OCc3ccccc3)ccc2C1C(=O)NCCN(C(C)C)C(C)C (stereo not given) on Growth hormone secretagogue receptor type 1 (Homo sapiens)?
8.68

Query CC(C)N(CCNC(=O)C1c2ccc(Oc3ccc(C=O)cc3)cc2CCN1C(=O)OC(C)(C)C)C(C)C (stereo not given) next
8.85

Then what about the compound CC(=O)NC(C(=O)N1CCc2cc(OCc3ccccc3)ccc2C1C(=O)NCCN(C(C)C)C(C)C)c1ccccc1 (stereo not given) ?
7.71

Check CC(C)N(CCNC(=O)C1c2ccc(OCc3ccccc3)cc2CCN1C(=O)CCc1ccccc1)C(C)C (stereo not given) too.
7.57

What do you get for COc1ccc(CC(=O)N2CCc3cc(OCc4ccccc4)ccc3C2C(=O)NCCN(C(C)C)C(C)C)cc1 (stereo not given) ?
7.35

Moving on to the next compound: CC(C)N(CCNC(=O)C1c2ccc(OCc3ccccc3)cc2CCN1C(=O)N(C)C)C(C)C (stereo not given)
6.72

Also CC(C)N(CCNC(=O)C1c2ccc(Oc3cccc(C(F)(F)F)c3)cc2CCN1C(=O)OC(C)(C)C)C(C)C (stereo not given) ?
8.82

Quick one: CC(=O)N1CCc2cc(OCc3ccccc3)ccc2C1C(=O)NCCN(C(C)C)C(C)C (stereo not given)
6.59

And the next one, CC(C)N(CCNC(=O)C1c2ccc(OCc3ccccc3)cc2CCN1C(=O)C(O)c1ccccc1)C(C)C (stereo not given) ?
7.41

Would you mind doing CC(C)N(CCNC(=O)C1c2ccc(OCc3ccccc3)cc2CCN1C(=O)OC(C)(C)C)C(C)C (stereo not given) as well?
7.93

# iterate: CC(C)N(CCNC(=O)C1c2ccc(OCc3ccccc3)cc2CCN1C(=O)NC(C)(C)C)C(C)C (stereo not given)
7.84

Next compound: CC(C)N(CCNC(=O)C1c2ccc(Oc3cccc([N+](=O)[O-])c3)cc2CCN1C(=O)OC(C)(C)C)C(C)C (stereo not given)
9.18

// same read-out, input: CCN(CC)CCNC(=O)C1c2ccc(OCc3ccccc3)cc2CCN1C(=O)OC(C)(C)C (stereo not given)
7.71

Follow-up item: CC(C)N(CCNC(=O)C1c2ccc(OCc3ccccc3)cc2CCN1C(=O)C(CO)c1ccccc1)C(C)C (stereo not given)
8.25

Now try CC(C(=O)N1CCc2cc(OCc3ccccc3)ccc2C1C(=O)NCCN(C(C)C)C(C)C)c1ccccc1 (stereo not given) .
8.47

Same question for CC(C)N(CCNC(=O)C1c2ccc(OCc3ccccc3)cc2CCN1S(=O)(=O)Cc1ccccc1)C(C)C (stereo not given) please.
8.14

And the next one, COC(=O)C(C)(C)OC(=O)N1CCc2cc(OCc3ccccc3)ccc2C1C(=O)NCCN(C(C)C)C(C)C (stereo not given) ?
8.82

Same lookup for CC(C)N(CCNC(=O)C1c2ccc(Oc3ccc(Cl)cc3)cc2CCN1C(=O)OC(C)(C)C)C(C)C (stereo not given) , please.
9.14

# repeat for CC(C)N(CCNC(=O)C1c2ccc(OCc3ccccc3)cc2CCN1C(=O)CCCc1ccccc1)C(C)C (stereo not given)
7.88

Can you check CC(C)N(CCNC(=O)C1c2ccc(OCc3ccccc3)cc2CCN1S(=O)(=O)N(C)C)C(C)C (stereo not given) next?
7.68

Repeat with CC(C)N(CCNC(=O)C1c2ccc(OCc3ccccc3)cc2CCN1C(=O)OC(C)(C)C#N)C(C)C (stereo not given)
8.01

Item: CC(C)N(CCNC(=O)C1c2ccc(OCc3ccccc3)cc2CCN1C(=O)OCc1ccccc1)C(C)C (stereo not given)
7.57

Try CC(C)NCCNC(=O)C1c2ccc(OCc3ccccc3)cc2CCN1C(=O)OC(C)(C)C (stereo not given) next.
6.66

Entry to check: CC(C)N(CCNC(=O)C1c2ccc(OCc3ccccc3)cc2CCN1C(=O)OC(C)(C)C(=O)N(C)C)C(C)C (stereo not given)
9.07

Lookup CC(C)N(CCNC(=O)C1c2ccc(Oc3ccc(C(F)(F)F)cc3)cc2CCN1C(=O)OC(C)(C)C)C(C)C (stereo not given)
8.64

Consider next the compound CC(C)N(CCNC(=O)C1c2ccc(OCc3ccccc3)cc2CCN1C(=O)Cc1ccccc1)C(C)C (stereo not given) in the same way.
8.05

Consider next the compound CC(C)(CN)CNC(=O)C1c2ccc(OCc3ccccc3)cc2CCN1C(=O)OC(C)(C)C (stereo not given) in the same way.
6.59

And for CC(C)N(CCNC(=O)C1c2ccc(Oc3ccccc3)cc2CCN1C(=O)OC(C)(C)C)C(C)C (single isomer, unassigned; form 1) ?
8.12

Field entry: CC(C)N(CCNC(=O)C1c2ccc(Oc3ccccc3)cc2CCN1C(=O)OC(C)(C)C)C(C)C (single isomer, unassigned; form 2)
9.34

// same read-out, input: CC(C)N(CCNC(=O)C1c2ccc(Oc3ccccc3)cc2CCN1C(=O)OC(C)(C)C)C(C)C (stereo in doubt; 12a)
9.31

###

Assign EC50 to each entry below.
target: Growth hormone secretagogue receptor type 1 (Homo sapiens); experiment: In vitro effective concentration against human growth hormone secretagogues; format: functional
The response must be a number in nM with no trailing unit.

Which EC50 is listed for CC(C)N(CCNC(=O)C1c2ccc(OCc3ccccc3)cc2CCN1S(=O)(=O)c1ccccc1)C(C)C (centres undefined) ?
21

What would you report for CC(C)N(CCNC(=O)C1c2ccc(OCc3ccccc3)cc2CCN1C(=O)Cc1ccccc1F)C(C)C (centres undefined) ?
43

Similarly, CC(=O)C(C)(C)OC(=O)N1CCc2cc(OCc3ccccc3)ccc2C1C(=O)NCCN(C(C)C)C(C)C (centres undefined) ?
2

Same read-out for CC(C)N(C)CCNC(=O)C1c2ccc(OCc3ccccc3)cc2CCN1C(=O)OC(C)(C)C (centres undefined) ?
41

Now this one: CC(C)N(CCNC(=O)C1c2ccc(OCc3ccccc3)cc2CCN1C(=O)CC(C)(C)C)C(C)C (centres undefined)
20.9

Another: CC(C)N(CCNC(=O)C1c2ccc(OCc3ccccc3)cc2CCN1C(=O)c1ccccc1)C(C)C (centres undefined)
7.6

Can you handle CCCOC(=O)N1CCc2cc(OCc3ccccc3)ccc2C1C(=O)NCCN(C(C)C)C(C)C (centres undefined) next?
3.4

Similarly, CC(C)N(CCNC(=O)C1c2ccc(OCc3ccccc3)cc2CCN1C(=O)OC1CCCCC1)C(C)C (centres undefined) ?
4.9

Same thing, different molecule: CC(=O)C(C(=O)N1CCc2cc(OCc3ccccc3)ccc2C1C(=O)NCCN(C(C)C)C(C)C)c1ccccc1 (centres undefined)
9.2

###

target: Growth hormone secretagogue receptor type 1 (Homo sapiens); experiment: In vitro effective concentration against human growth hormone secretagogues; assay type: functional
RECORDED ENDPOINT: log10(EC50) (log10 of the value in nM)
Give log10 of EC50, with EC50 taken in nM.

# input compound: CC(=O)c1ccccc1C(=O)N1CCc2cc(OCc3ccccc3)ccc2C1C(=O)NCCN(C(C)C)C(C)C (stereo not drawn) ; wanted: its log10(EC50)
0.86

Please give the result for COc1cccc(Oc2ccc3c(c2)CCN(C(=O)OC(C)(C)C)C3C(=O)NCCN(C(C)C)C(C)C)c1 (stereo not drawn) too.
-0.34

Input COc1cccc(CC(=O)N2CCc3cc(OCc4ccccc4)ccc3C2C(=O)NCCN(C(C)C)C(C)C)c1 (stereo not drawn)
0.81

What about this compound? COc1ccc(Oc2ccc3c(c2)CCN(C(=O)OC(C)(C)C)C3C(=O)NCCN(C(C)C)C(C)C)cc1 (stereo not drawn)
-0.31

Check CC(C)N(CCNC(=O)C1c2ccc(Oc3cccc(F)c3)cc2CCN1C(=O)OC(C)(C)C)C(C)C (stereo not drawn) too.
0.63

Can you check CC(C)N(CCNC(=O)C1c2ccc(OCc3ccccc3)cc2CCN1C(=O)c1ccccc1F)C(C)C (stereo not drawn) next?
1.25

Next record, please: CC(=O)Nc1cccc(Oc2ccc3c(c2)CCN(C(=O)OC(C)(C)C)C3C(=O)NCCN(C(C)C)C(C)C)c1 (stereo not drawn)
1.08

Repeat for the following compound: CSc1ccc(Oc2ccc3c(c2)CCN(C(=O)OC(C)(C)C)C3C(=O)NCCN(C(C)C)C(C)C)cc1 (stereo not drawn)
0.38
